Reported log10(MIC) values for a set of molecules
tested on: Staphylococcus aureus; experiment: Antimicrobial activity against staphylococcus aureus by broth dilution method; type: functional
Measure: log10(MIC) (log10 of the value in µg/mL)

Cc1cc(-c2ccc(N3C[C@H](CNc4ccon4)OC3=O)cc2F)on1 -0.30
CC(=O)NC[C@H]1CN(c2ccc(-c3c[nH]nn3)c(F)c2)C(=O)O1 0.60
O=C1O[C@@H](CNc2ccon2)CN1c1ccc(-c2c[nH]nn2)c(F)c1 0.90
N#CCn1cc(-c2ccc(N3C[C@H](Cn4ccnn4)OC3=O)cc2F)nn1 0.60
Cc1cc(-c2ccc(N3C[C@H](Cn4ccnn4)OC3=O)cc2F)on1 -0.30
Cn1cc(-c2ccc(N3C[C@H](Cn4ccnn4)OC3=O)cc2F)nn1 1.51
O=C1O[C@@H](Cn2ccnn2)CN1c1ccc(-c2c[nH]nn2)c(F)c1 1.81
CC(=O)NC[C@H]1CN(c2ccc(-c3cc(C)no3)c(F)c2)C(=O)O1 -0.30
Cc1cn(C[C@H]2CN(c3ccc(-c4cc(C)no4)c(F)c3)C(=O)O2)nn1 -0.30
